Hey, just so you know, these numbers are from ChEMBL document CHEMBL2380205.

- TEST NAME: Clearance in Sprague-Dawley rat at 10 mg/kg, iv
- Type: ADME, organism-based
- Design: dose 10 mg/kg, route intravenous
- CONDITION DESCRIPTION: in vivo
MEASUREMENT NAME: clearance (mL/min/kg)
Please respond with the number in mL/min/kg and leave the unit unwritten.

Reported clearance for CC1(c2ccc(Nc3nc(N4CCc5ccccc5C4)nc(N4CCc5ccccc5C4)n3)cc2)NC(=O)c2ccccc2N1 (stereo unspecified) : what is it?
5.5

* * *

- TEST NAME: AUC (0 to t) in Sprague-Dawley rat at 10 mg/kg, iv
- Type: ADME, organism-based
- Parameters: dose 10 mg/kg, route intravenous
- CONDITION DESCRIPTION: plasma
MEASUREMENT NAME: AUC(0-t) (ng·h/mL)
Please respond with the number in ng·h/mL and leave the unit unwritten.

Reported AUC(0-t) for CC1(c2ccc(Nc3nc(N4CCc5ccccc5C4)nc(N4CCc5ccccc5C4)n3)cc2)NC(=O)c2ccccc2N1 (stereo unspecified) : what is it?
24300

* * *

List of CC50 at 72 h values.
- TEST NAME: Cytotoxicity against african green monkey Vero cells after 72 hrs by MTT assay
- Type: cell-based
- CONDITION DESCRIPTION: chlorocebus sabaeus

Field: example entries. Status: answers known.
>  <COMPOUND>
COc1cccc(-c2cc(-c3ccc(C4NC(=O)c5ccccc5N4)cc3)nc(N)n2)c1OC (centres undefined)

>  <CC50 at 72 h>
> 400 µM

$$$$
>  <COMPOUND>
CC1(c2ccc(NC(c3ccc(Cl)cc3)c3nnnn3C(C)(C)C)cc2)NC(=O)c2ccccc2N1 (centres undefined)

>  <CC50 at 72 h>
> 400 µM

$$$$
>  <COMPOUND>
COc1ccc(-c2cc(-c3ccc(C4NC(=O)c5ccccc5N4)cc3)nc(N)n2)cc1 (centres undefined)

>  <CC50 at 72 h>
124 µM

$$$$
>  <COMPOUND>
CCCCNc1nc(NCCCC)nc(Nc2ccc(C3(C)NC(=O)c4ccccc4N3)cc2)n1 (centres undefined)

>  <CC50 at 72 h>
142 µM

$$$$

Reported CC50 at 72 h for CCCCCNc1nc(NCCCCC)nc(Nc2ccc(C3(C)NC(=O)c4ccccc4N3)cc2)n1 (centres undefined) : what is it?
> 400 µM

Reported CC50 at 72 h for CC1(c2ccc(Nc3nc(N4CCCCC4)nc(N4CCCCC4)n3)cc2)NC(=O)c2ccccc2N1 (centres undefined) : what is it?
> 400 µM

Reported CC50 at 72 h for CC1(c2ccc(NC(c3ccc(Br)cc3)c3nnnn3C(C)(C)C)cc2)NC(=O)c2ccccc2N1 (centres undefined) : what is it?
> 400 µM

Reported CC50 at 72 h for CC(C)(C)Nc1nc(Nc2ccc(C3(C)NC(=O)c4ccccc4N3)cc2)nc(NC(C)(C)C)n1 (centres undefined) : what is it?
159 µM

Reported CC50 at 72 h for CC(C)c1ccc(C(C(=O)NC(C)(C)C)N(C(=O)c2cccc(Cl)c2)c2ccc(C3(C)NC(=O)c4ccccc4N3)cc2)cc1 (centres undefined) : what is it?
> 400 µM

* * *

List of CC50 at 72 h values.
- TEST NAME: Cytotoxicity against african green monkey Vero cells after 72 hrs by MTT assay
- Assay type: cell-based
- CONDITION DESCRIPTION: chlorocebus sabaeus

Field: example entries. Status: answers known.
>  <COMPOUND>
COc1cc(-c2cc(-c3ccc(C4NC(=O)c5ccccc5N4)cc3)nc(N)n2)cc(OC)c1OC (stereo not given)

>  <CC50 at 72 h>
85.9 µM

$$$$
>  <COMPOUND>
CC(C)c1ccc(C(Nc2ccc(C3(C)NC(=O)c4ccccc4N3)cc2)c2nnnn2C(C)(C)C)cc1 (stereo not given)

>  <CC50 at 72 h>
> 400 µM

$$$$
>  <COMPOUND>
CC1(c2ccc(Nc3nc(NCc4ccccc4)nc(NCc4ccccc4)n3)cc2)NC(=O)c2ccccc2N1 (stereo not given)

>  <CC50 at 72 h>
359 µM

$$$$

Reported CC50 at 72 h for CN1CCN(c2ccc(-c3cc(-c4ccc(C5NC(=O)c6ccccc6N5)cc4)nc(N)n3)cc2)CC1 (stereo not given) : what is it?
8.32 µM

Reported CC50 at 72 h for CCCNc1nc(NCCC)nc(Nc2ccc(C3(C)NC(=O)c4ccccc4N3)cc2)n1 (stereo not given) : what is it?
> 400 µM

* * *

- System: Leishmania donovani
- TEST NAME: Antileishmanial activity against amastigotes of Leishmania donovani MHOM/IN/60/Dd8 infected in mouse J-774A.1 cells after 72 hrs by luciferase reporter gene assay
- Format: functional, organism-based
- CONDITION DESCRIPTION: MHOM/IN/60/Dd8, J774.A1, 72 h
List of IC50 values.
Please respond with the number in µM and leave the unit unwritten.

Field: example entries. Status: answers known.
>  <COMPOUND>
CC1(c2ccc(N(C(=O)c3cccc(Cl)c3)C(C(=O)NC3CCCCC3)c3ccc(Cl)cc3)cc2)NC(=O)c2ccccc2N1 (stereo not drawn)

>  <IC50, µM>
15.8

$$$$
>  <COMPOUND>
CC(C)(C)NC(=O)C(c1ccc(Cl)cc1)N(C(=O)c1cccc(Cl)c1)c1ccc(C2(C)NC(=O)c3ccccc3N2)cc1 (stereo not drawn)

>  <IC50, µM>
13.5

$$$$
>  <COMPOUND>
Nc1nc(-c2ccc(Cl)cc2)cc(-c2ccc(C3NC(=O)c4ccccc4N3)cc2)n1 (stereo not drawn)

>  <IC50, µM>
1.89

$$$$

Attention now turns to another entry.
Reported IC50 for COc1cc(-c2cc(-c3ccc(C4NC(=O)c5ccccc5N4)cc3)nc(N)n2)cc(OC)c1OC (stereo not drawn) : what is it?
3.83

* * *

- TEST NAME: Tmax in Sprague-Dawley rat at 10 […], po
- Assay type: ADME, organism-based
- CONDITION DESCRIPTION: in vivo
MEASUREMENT NAME: Tmax

Reported Tmax for CC1(c2ccc(Nc3nc(N4CCCCC4)nc(N4CCCCC4)n3)cc2)NC(=O)c2ccccc2N1 (stereo unspecified) : what is it?
2 h

* * *

- TEST NAME: Cytotoxicity against mouse J774A1 cells after 72 hrs by MTT assay
- Type: cell-based, J774.A1
MEASUREMENT NAME: CC50 at 72 h (µM)
Please respond with the number in µM and leave the unit unwritten.

Field: example entries. Status: answers known.
>  <MOLECULE>
COc1ccc(-c2cc(-c3ccc(C4NC(=O)c5ccccc5N4)cc3)nc(N)n2)cc1 (configuration not stated)

>  <CC50 at 72 h [µM]>
178

$$$$
>  <MOLECULE>
CC(C)(C)Nc1nc(Nc2ccc(C3(C)NC(=O)c4ccccc4N3)cc2)nc(NC(C)(C)C)n1 (configuration not stated)

>  <CC50 at 72 h [µM]>
60.7

$$$$
>  <MOLECULE>
CC1(c2ccc(Nc3nc(N4CCCCCC4)nc(N4CCCCCC4)n3)cc2)NC(=O)c2ccccc2N1 (configuration not stated)

>  <CC50 at 72 h [µM]>
237

$$$$
>  <MOLECULE>
Nc1nc(-c2ccc(Cl)cc2)cc(-c2ccc(C3NC(=O)c4ccccc4N3)cc2)n1 (configuration not stated)

>  <CC50 at 72 h [µM]>
82.2

$$$$
>  <MOLECULE>
CCCCCCCCCCCCCCCCOP(=O)([O-])OCC[N+](C)(C)C

>  <CC50 at 72 h [µM]>
12.4

$$$$
>  <MOLECULE>
CC1(c2ccc(NC(c3ccc(Br)cc3)c3nnnn3C(C)(C)C)cc2)NC(=O)c2ccccc2N1 (configuration not stated)

>  <CC50 at 72 h [µM]>
400

$$$$

Attention now turns to another entry.
Reported CC50 at 72 h for CCCCNc1nc(NCCCC)nc(Nc2ccc(C3(C)NC(=O)c4ccccc4N3)cc2)n1 (configuration not stated) : what is it?
40.1

* * *

- TEST NAME: Tmax in Sprague-Dawley rat at 5 mg/kg, iv
- Type: ADME, organism-based
- Set-up: dose 5 mg/kg, route intravenous
- CONDITION DESCRIPTION: in vivo
MEASUREMENT NAME: Tmax (min)
Please respond with the number in min and leave the unit unwritten.

Reported Tmax for CC1(c2ccc(Nc3nc(N4CCCCC4)nc(N4CCCCC4)n3)cc2)NC(=O)c2ccccc2N1 (stereo unspecified) : what is it?
4.8

* * *

- TEST NAME: Volume of distribution at steady state in Sprague-Dawley rat at 10 mg/kg, iv
- Format: ADME, organism-based
- Design: dose 10 mg/kg, route intravenous
- CONDITION DESCRIPTION: in vivo, read-out: Vdss
MEASUREMENT NAME: Vd (L/kg)
Please respond with the number in L/kg and leave the unit unwritten.

Reported Vd for CC1(c2ccc(Nc3nc(N4CCc5ccccc5C4)nc(N4CCc5ccccc5C4)n3)cc2)NC(=O)c2ccccc2N1 (stereo unspecified) : what is it?
1.95
